measuredMetric: melting point

// known answers, use as guide
>>> reportedvalue("CN(C)C(=O)Nc1cc(O)cc(O)c1")
"230 °C"
>>> reportedvalue("CCCCc1nc2ccccn2c(=O)c1-c1ccc(NC[C@H]2CCCO2)cc1")
"155 to 170 °C"
>>> reportedvalue("CCSc1nc2c(C(=O)OCOC)sc(C)c2[nH]1")
"128 to 130 °C"
>>> reportedvalue("CC1Cc2c(n(-c3ccccc3)c3ncccc3c2=O)O1 (stereo not given)")
"207 to 209 °C"
>>> reportedvalue("Nc1nc(N)c2cc(Cc3ccc(Cl)cc3)ccc2n1")
"224 to 225 °C"

Okay, now this compound:
Which melting point value is on record for COc1cc(-c2cn(-c3cccc(OCCn4ccnc4)c3)c3ncnc(N)c23)ccc1OCc1ccccc1 ?
122 to 124 °C

---

// values below are reported melting point

>>> reportedvalue("O=[N+]([O-])C1COc2cc3c(cc2C1c1ccccc1C1OCCCO1)OCO3 (stereo not given)")
"207 °C"
>>> reportedvalue("COc1ccc(CCN2CCC(C(O)(c3cc4ccccc4s3)c3cc4ccccc4s3)CC2)cc1")
"168 to 179 °C"

// query melting point value for entry CSc1nc(NCCC(C)C)c2ccnc-2[nH]1
157 to 158 °C

Item under review: CN1CCN(c2ccc(F)cc2C=C2CCCN(c3ccc(F)c(F)c3)C2=O)CC1 . Reported melting point?
168 to 170 °C

So what does the record say about melting point for CCOC(=O)c1nc2ccc(I)cc2[nH]1 ?
166 to 168 °C

Field request: melting point | item: Cc1onc(-c2ccccc2)c1-c1[nH]c2ccccc2c1CCC(=O)O
170 to 172 °C

Looking for the measured melting point of CC(=O)c1ccc2c(c1)OC(C(=O)O)CO2 (stereo not given) , can you help?
167 to 168 °C

Which value of melting point has been reported for COc1ccc2[nH]c(=O)n3c(=O)[nH]nc3c2c1 in the records?
> 350 °C

---

# Lookup of reported melting point keyed by entry

Examples with their reported melting point follow.
>>> reportedvalue("Nc1ccnc(-c2nnn(Cc3cc(C(F)(F)F)cc(C(F)(F)F)c3)c2-c2ccccc2)c1C(=O)c1ccccc1Cl")
"156 °C"
>>> reportedvalue("CC1c2ccccc2CC(C)(O)Cc2ccccc21 (stereo not given)")
"100 to 135 °C"
>>> reportedvalue("CCOC(=O)C(=NNc1ccc(C)cc1C)C(C)=O")
"106 to 108 °C"
>>> reportedvalue("COC(=O)C(=O)CC(=O)/C=C/c1ccc(Cl)cc1")
"135 to 136 °C"
>>> reportedvalue("ClCCCc1nc2ccccn2n1")
"56.5 to 57 °C"
>>> reportedvalue("CCOc1cnc(C(C)(C)OC(=O)Nc2ccc(-c3ncn(-c4ccc(OC(F)(F)F)cc4)n3)cc2)nc1")
"168 to 171 °C"

We next turn to a different compound, shown below.
Look up melting point: Cc1cc2cn[nH]c2c(C(=O)NC(C)C)c1NC(=O)c1cc(OCC(F)(F)F)nn1-c1ncccc1Cl
247 to 250 °C

---

measuredMetric: melting point

Use the examples below as a reference point.
>>> reportedvalue("CCCC(COS(C)(=O)=O)(OC(C)C)c1ccc(Cl)cc1Cl (stereo unspecified)")
"58 to 61 °C"
>>> reportedvalue("O=C1CCC(Cc2ccccc2Cl)CC1")
"48 °C"
>>> reportedvalue("CC12CCC3c4ccc(C(=O)O)cc4CCC3C1CCC2C(=O)c1ccccc1 (stereo unspecified)")
"210 to 215 °C"
>>> reportedvalue("Cc1cc(-n2ccnc2)c2cccc(OCc3c(Cl)ccc(S(=O)(=O)N4CCC[C@H]4C(=O)NCCc4cccnc4)c3Cl)c2n1")
"117 °C"
>>> reportedvalue("Fc1ccc(OC(CCN2CCN(c3ccccc3)CC2)c2ccccc2)cc1 (stereo unspecified)")
"80 to 82 °C"
>>> reportedvalue("CCOC(=O)Cc1sc(SCc2ccc(C(=O)OC)s2)nc1C")
"49 to 51 °C"
>>> reportedvalue("Fc1ccc2[nH]ccc2c1Cl")
"41 to 43 °C"
>>> reportedvalue("COCCOc1ccc(CCCOC(=O)NS(=O)(=O)NCCc2ccccc2)c(Oc2ncc(C(F)(F)F)cc2Cl)c1")
"110 to 113 °C"
>>> reportedvalue("Cc1nc(N)c2nc(CO)n(NCc3cccnc3)c2c1C")
"258 to 260 °C"
>>> reportedvalue("CC1=C(NC=O)C(C)C(C)(C(C)C)C2=C1CC(C)(CI)O2 (stereo unspecified)")
"145 to 147 °C"

Dear colleague, I am looking for the recorded melting point of the following molecule: O=C(O)[C@H]1Oc2ccc(Cl)cc2[C@@H](c2ccccc2)O1 (relative stereo)
175 °C

What does the record list as melting point for O=C1OCCC12Sc1ccc(S(=O)(=O)N3CCOCC3)cc1C2=O (stereo unspecified) ?
220 to 222 °C

Reported melting point, molecule Nc1cc(C(=O)c2ccccc2)ccc1N1CCOCC1 : ____
138 °C

Name the reported melting point value associated with the molecule COc1cc(C(C)=O)cc(Br)c1Oc1nc(C)nc(N2CCOCC2)n1
159 to 162 °C

Look at this molecule and give its reported melting point. c1ccc(CSc2nc3ccccc3[nH]2)cc1
185 to 186 °C

Data request, read-out melting point, for COc1ccc2c(c1)C(=O)C(Cc1cccc(N)c1)CC2 (stereo unspecified)
159 to 161 °C

Please give the measured melting point for this molecule: Nc1nc(N)c2cc(Cc3ccc4ccccc4c3)ccc2n1
256 to 257 °C

Sample Cc1ccc2c(=O)[nH]c(C3CCN(C)CC3)cc2c1 — what was its melting point?
236 to 238 °C

Could you share which melting point value was measured for CCOC(=O)Cc1ccc(-c2nc(COc3ccc(COc4nn(-c5ccccc5)cc4C=O)cc3OC)c(C)o2)cc1 ?
157 to 158 °C

Could you tell me which melting point is on file for CCNCCCOc1ccc(-c2ccc(C(=O)O)cc2)cc1-c1ccc2c(c1)C(C)(C)CCC2(C)C ?
233 °C

For the molecule shown here, CCN1CCC(c2ccccc2)=C(C(=O)NC)C1 , give the reported melting point.
103 to 105 °C
